Cited source: paper PMC5540273

- System: TIE2;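 also: kd values determined as follow-up on hits from a single-replicate KINOMEscan panel screen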
- Construct: gene TEK
Endpoint: Kd

Enquiry: For the molecule "NC(=O)c1nnc2ccccc2c1N" , what Kd is on record?
Return: > 10 µM

* * *

- Test system: STK33
- Assay setup: concentration: 1 μM, replicates: in singlicate; n = 1
Task for the reader: assign each of the following molecules its reported %Inh.
Reply with just the number (in %).

Enquiry: For the molecule COc1cc2ncn(-c3cc(OCC4CCCO4)c(C(N)=O)s3)c2cc1OC (stereo not shown) , what %Inh is on record?
Return: 0

Enquiry: Queued: "CCn1c(-c2ccccn2)nc2cnccc21"
Return: 0

Enquiry: Queued: "Cc1cccc(-c2nc(Nc3cccc(C(N)=O)c3)c3ccccc3n2)n1"
Return: 29

Enquiry: Queued: "O=C(O)COc1ncnc2cc(-c3ccc4[nH]ncc4c3)sc12"
Return: 0

Enquiry: Queued: "COc1ccc(C2=C(Nc3cccc(C(=O)O)c3)C(=O)NC2=O)cc1"
Return: 0

Enquiry: Queued: "COc1cccc(-c2cc(-c3c[nH]nc3-c3ccccn3)ccn2)c1"
Return: 0

Enquiry: Queued: "NC(=O)c1nnc2ccccc2c1N"
Return: 11

Enquiry: Queued: "Cc1cccc(-c2nc(-c3ccc(S(C)(=O)=O)cc3)sc2-c2ccnc(NCCc3ccccc3)c2)c1"
Return: 0

Enquiry: Queued: "Cn1ccc2ncnc(Oc3cccc(C(=O)Nc4ccccc4)c3)c21"
Return: 7

Enquiry: Queued: "CS(=O)(=O)c1ccc(-c2c(-c3ncn[nH]3)sc(N3CCOCC3)c2C#N)cc1"
Return: 0

Enquiry: Queued: "O=C(Nc1n[nH]c2nc(-c3nccs3)c(Br)cc12)C1CCCC1"
Return: 0

Enquiry: Queued: "Cl.NC(=O)c1cccc(Nc2nccc(Nc3ccc(Oc4cccc(Cl)c4)c(Cl)c3)n2)c1"
Return: 0

Enquiry: Queued: "CN(C)CCN(C)C(=O)c1cc(-c2ccncc2)c(-c2ccc(Cl)c(O)c2)o1.Cl.Cl"
Return: 0

Enquiry: Queued: "Cl.Oc1ccc(-c2nc(-c3ccccc3)[nH]c2-c2ccncc2)cc1"
Return: 0

Enquiry: Queued: "Cn1ccc2ncnc(Oc3ccc(NC(=O)Nc4ccccc4)cc3)c21"
Return: 17

Enquiry: Queued: "Cc1ccc(-c2cc(-c3c[nH]nc3-c3ccccn3)ccn2)cc1"
Return: 0

Enquiry: Queued: O=C(Nc1ccc2c(c1)OCO2)NC1CCN(c2ccnc(Nc3ccc(F)cc3)n2)C1 (stereo not shown)
Return: 0

Enquiry: Queued: "Cc1c(Cn2ccn3c(=O)cc(N4CCOCC4)nc23)cccc1C(F)(F)F"
Return: 0

Enquiry: Queued: "CC(C)(C)c1ccc(C(=O)Nc2cn3cc(Cl)ccc3n2)cc1"
Return: 0

* * *

- Test system: SYK
- Assay setup: concentration: 1 μM, replicates: in singlicate; n = 1
Criterion: %Inh strictly under 20%. Met: t. Not met: f.

Enquiry: is_below(%Inh, 20%) for "Cl.Oc1ccc(-c2nc(-c3ccccc3)[nH]c2-c2ccncc2)cc1" ?
Return: f

Enquiry: Queued: "NC(=O)c1nnc2ccccc2c1N"
Return: t

Enquiry: Queued: "COC(=O)c1c(-c2ccccc2)c2cc(OC)ccc2c(=O)n1Cc1ccccc1"
Return: t

Enquiry: Queued: "CN(C)CCN(C)C(=O)c1cc(-c2ccncc2)c(-c2ccc(Cl)c(O)c2)o1.Cl.Cl"
Return: t

* * *

Task for the reader: assign each of the following compounds its reported %Inh.
- Test system: RPS6KA4(Kin.Dom.2-C-terminal)
- Assay setup: concentration: 1 μM, replicates: in singlicate; n = 1
Reply with just the number (in %).

Enquiry: For the compound "Cn1ccc2ncnc(Oc3ccc(Nc4nc5ccccc5[nH]4)cc3)c21" , what %Inh is on record?
Return: 0

Enquiry: Queued: "C[C@@H]1CCCCN1c1cc(-c2ccc3c(N)n[nH]c3c2)nc(N)n1"
Return: 0

Enquiry: Queued: "Cn1cncc1-c1ccc2ncnc(Nc3ccc(OCc4ccccc4)cc3)c2c1"
Return: 0

Enquiry: Queued: COc1cc2ncn(-c3cc(OCC4CCCO4)c(C(N)=O)s3)c2cc1OC (stereo not drawn)
Return: 3

Enquiry: Queued: "CN(C)CCN(C)C(=O)c1cc(-c2ccncc2)c(-c2ccc(Cl)c(O)c2)o1.Cl.Cl"
Return: 0

Enquiry: Queued: "Cl.NC(=O)c1cccc(Nc2nccc(Nc3ccc(Oc4cccc(Cl)c4)c(Cl)c3)n2)c1"
Return: 0

Enquiry: Queued: "Cc1cccc(-c2nc(Nc3ccncc3)c3ccccc3n2)n1"
Return: 0

Enquiry: Queued: "COc1ccc(C2=C(Nc3cccc(C(=O)O)c3)C(=O)NC2=O)cc1"
Return: 17

Enquiry: Queued: Cc1nnc(-c2ccc3occ(-c4ccc(S(C)=O)cc4)c3c2)[nH]1 (stereo not drawn)
Return: 11

Enquiry: Queued: "CN1C(=O)C(Nc2ccc(Cl)c(C(=O)O)c2)=C(c2ccc(Cl)cc2)C1=O"
Return: 2

Enquiry: Queued: COc1ccc(CNC(=O)NC2CCN(c3ccnc(Nc4cc(OC)c(OC)c(OC)c4)n3)C2)cc1 (stereo not drawn)
Return: 0

Enquiry: Queued: "Cc1ccc(C(=O)Nc2ccc(Nc3ccnc4cc(-c5ccccn5)ccc34)cc2O)cc1.Cl"
Return: 0

Enquiry: Queued: "Clc1cc(Cl)cc(Nc2ccnc(Nc3cc(Cl)cc(Cl)c3)n2)c1"
Return: 0

Enquiry: Queued: "Cc1cc(N2Cc3ccccc3C2)nc(Nc2ccc(S(=O)(=O)N3CCOCC3)cc2)n1.Cl"
Return: 0

Enquiry: Queued: "COc1ccccc1-c1ccc2c(NC(=O)C3CC3)n[nH]c2n1"
Return: 0

Enquiry: Queued: "Fc1cccc(COc2nnc(-c3ccc4c(c3)CCO4)o2)c1"
Return: 30

Enquiry: Queued: "Cc1cccc(-c2nc(Nc3ccc4[nH]ncc4c3)c3ccccc3n2)n1"
Return: 33

Enquiry: Queued: "Cl.c1ccc(-c2n[nH]cc2-c2ccnc(-c3ccc(CN4CCOCC4)cc3)c2)nc1"
Return: 0

* * *

- System: IKK-epsilon
- Construct: gene IKBKE
- Assay setup: concentration: 1 μM, replicates: in singlicate; n = 1
Endpoint: %Inh
Please answer in the form of a number followed by its unit of measurement.

Enquiry: For the molecule "Cn1ccc2ncnc(Oc3ccc(Nc4nc5ccccc5[nH]4)cc3)c21" , what %Inh is on record?
Return: 0%

Enquiry: Queued: CC1=C(C(=O)Nc2cc3cn[nH]c3cc2F)C(c2ccc(C(F)(F)F)cc2)CC(=O)N1 (stereo not shown) [GSK429286]
Return: 5%

Enquiry: Queued: "CS(=O)(=O)c1ccc(-c2c(-c3ncn[nH]3)sc(N3CCOCC3)c2C#N)cc1"
Return: 24%

Enquiry: Queued: "Fc1cccc(COc2nnc(-c3ccc4c(c3)CCO4)o2)c1"
Return: 0%

Enquiry: Queued: Cc1cc(NCC(c2ccccc2)c2ccccc2)nc(NCc2ccc(C(F)(F)F)cc2)n1 [GW497681]
Return: 26%

Enquiry: Queued: "O=C(O)COc1ncnc2cc(-c3ccc4[nH]ncc4c3)sc12"
Return: 4%

Enquiry: Queued: CN1C(=O)C(Nc2ccc(Cl)c(C(=O)O)c2)=C(c2ccc(Cl)cc2)C1=O [SB-404290]
Return: 0%

Enquiry: Queued: Cc1cccc(-c2cc(Nc3ccncc3)c3ccccc3n2)n1 [GSK223675]
Return: 36%

Enquiry: Queued: COc1cc2ncnc(Nc3ccc4nc(-c5ccccc5)[nH]c4c3)c2cc1OC.Cl [GW282450]
Return: 0%

Enquiry: Queued: CS(=O)(=O)c1ccc(-c2nc3n(c2-c2ccncc2)CCC3)cc1 [SKF-105942]
Return: 0%

Enquiry: Queued: Cl.Oc1ccc(-c2nc(-c3ccccc3)[nH]c2-c2ccncc2)cc1 [SB-428218]
Return: 12%

Enquiry: Queued: "Cc1cccc(-c2nc(-c3ccc(S(C)(=O)=O)cc3)sc2-c2ccnc(NCCc3ccccc3)c2)c1"
Return: 0%

Enquiry: Queued: Cc1cccc(-c2nc(Nc3ccc4[nH]ncc4c3)c3ccccc3n2)n1 [GW857175]
Return: 21%

Enquiry: Queued: C[C@@H]1CCCCN1c1cc(-c2ccc3c(N)n[nH]c3c2)nc(N)n1 [GSK2258759]
Return: 43%

Enquiry: Queued: Cc1nnc(-c2ccc3occ(-c4ccc(S(C)=O)cc4)c3c2)[nH]1 (stereo not shown)
Return: 0%

Enquiry: Queued: Fc1cc(Cl)ccc1Nc1ccnc2cc(I)ccc12 [GW551191]
Return: 19%

Enquiry: Queued: COc1cc(Nc2nccc(N3CCC(NC(=O)Nc4cc(C)ccc4C)C3)n2)cc(OC)c1OC (stereo not shown) [GSK1379762]
Return: 23%

Enquiry: Queued: Cc1ccc(NC(=O)Nc2cc(C(C)(C)C)nn2-c2ccccc2)cc1 [GSK1014915]
Return: 1%

Enquiry: Queued: CCn1c(-c2cccnc2O)nc2cnccc21 [SB-736715]
Return: 0%

* * *

- System: VPS34
- Construct: gene PIK3C3
- Assay setup: concentration: 1 μM, replicates: in singlicate; n = 1
Assign label 1 whenever %Inh does not fall below 2%; assign label 0 whenever it does.

Enquiry: Hi, just wondering whether "COc1ccccc1CNC(=O)c1cc(C(=O)c2ccccc2C)c[nH]1" shows %Inh of 2% or higher.
Return: label 0

Enquiry: Queued: "COc1ccc2nc(-c3cccc(C)n3)nc(Nc3ccncc3)c2c1"
Return: label 0

Enquiry: Queued: "Cc1cccc(-c2nc(Nc3ccc4[nH]ncc4c3)c3ccccc3n2)n1"
Return: label 0

Enquiry: Queued: COc1cc2ncn(-c3cc(OCC4CCCO4)c(C(N)=O)s3)c2cc1OC (centres unmarked)
Return: label 0

Enquiry: Queued: "Nc1nc(-c2nccs2)c(-c2ccnc3ccccc23)s1"
Return: label 0

Enquiry: Queued: "Cc1ccccc1-n1cnc2c(N)ncnc21"
Return: label 0

Enquiry: Queued: "Cc1csc(-c2nc(Nc3ccncc3)c3ccccc3n2)n1"
Return: label 1

Enquiry: Queued: "Cc1cc(NCC(c2ccccc2)c2ccccc2)nc(NCc2ccc(C(F)(F)F)cc2)n1"
Return: label 0

Enquiry: Queued: "O=C(Nc1n[nH]c2nc(-c3nccs3)c(Br)cc12)C1CC1"
Return: label 0

Enquiry: Queued: "Cc1cccc(-c2nc(C)cc(Nc3ccncc3)n2)n1"
Return: label 1

Enquiry: Queued: "Cn1ccc2ncnc(Oc3ccc(NC(=O)Nc4ccccc4)cc3)c21"
Return: label 0

Enquiry: Queued: "Cc1ccc(NC(=O)Nc2cccc(Cl)c2)cc1-c1ccc(C(=O)Nc2ccncc2)cc1"
Return: label 0

Enquiry: Queued: "CN(C)CCN(C)C(=O)c1cc(-c2ccncc2)c(-c2ccc(Cl)c(O)c2)o1.Cl.Cl"
Return: label 0

Enquiry: Queued: "CCn1c(-c2ccccn2)nc2cnccc21"
Return: label 1

Enquiry: Queued: COc1cccc(NC(=O)NC2CCN(c3ccnc(Nc4ccc(F)cc4)n3)C2)c1 (centres unmarked)
Return: label 1

Enquiry: Queued: "C[C@@H]1CCCCN1c1cc(-c2ccc3c(N)n[nH]c3c2)nc(N)n1"
Return: label 0

Enquiry: Queued: "Cl.Oc1ccc(-c2nc(-c3ccccc3)[nH]c2-c2ccncc2)cc1"
Return: label 0

Enquiry: Queued: "Cn1ccc2ncnc(Oc3cccc(C(=O)Nc4ccccc4)c3)c21"
Return: label 1

Enquiry: Queued: "Cc1cccc(-c2nc(Nc3cccc(C(N)=O)c3)c3ccccc3n2)n1"
Return: label 1
